The values you see were collected from patent US11547681B2.

Measurement Description: in vitro
Condition Context: male, CD-1, mouse, 60 min, 1 μM
Listed compounds paired with reported Measured concentration of analyte PEA, 60 min
Answer format: numeric, µM implied, no suffix.

In the examples that follow, each entry is paired with its recorded Measured concentration of analyte PEA, 60 min.
>>> recorded_measurement("CCCCCCCCCCCCCCCC(=O)NCCOC(=O)CCC(=O)OCC(COC(=O)CCC)OC(=O)CCC (stereo not shown)")
0.030
>>> recorded_measurement("CCCCCCCCCCCCCCCC(=O)NCCOC(=O)CCC")
0.023
>>> recorded_measurement("CCCCC/C=C\\C/C=C\\CCCCCCCC(=O)OCCNC(=O)CCCCCCCCCCCCCCC")
0.027

Please look at the following compound next.
Ask: Which Measured concentration of analyte PEA, 60 min reading was recorded for the compound `CC/C=C\C/C=C\C/C=C\C/C=C\C/C=C\CCCC(=O)OCCNC(=O)CCCCCCCCCCCCCCC` ?
Reply: 0.024

----------
Measurement Description: in vitro
Condition Context: male, Sprague-Dawley, rat, s9, 20 min, 1 μM
Protocol: Reaction mixture, minus cofactors, was prepared as described below. Test article was added into the reaction mixture at a final concentration of 1 μM. […] Half-lives were calculated using GraphPad software, fitting to a single-phase exponential decay equation. Reaction mixture, minus cofactors, was prepared as described below. […] Half-lives were calculated using GraphPad software, fitting to a single-phase exponential decay equation. […]
Measure: % Remaining of Initial (n = 1), 20 min (%)
Answer format: numeric, % implied, no suffix.

In the examples that follow, each entry is paired with its recorded % Remaining of Initial (n = 1), 20 min.
>>> recorded_measurement("CCCCCCCCCCCCCCCC(=O)NCCOC(=O)CCC(=O)OCC(COC(=O)CCCCCCC)OC(=O)CCCCCCC (stereo not shown) [Compound I-3, PEA-Succinate-Glycerol-Di-Caprylic]")
69
>>> recorded_measurement("CC/C=C\\C/C=C\\C/C=C\\C/C=C\\C/C=C\\CCCC(=O)OCCNC(=O)CCCCCCCCCCCCCCC [Compound I-5]")
82
>>> recorded_measurement("CCCCC/C=C\\C/C=C\\CCCCCCCC(=O)OCCNC(=O)CCCCCCCCCCCCCCC [Compound I-6]")
82

Ask: Which % Remaining of Initial (n = 1), 20 min reading was recorded for the compound CCCCCCCCCCCCCCCC(=O)NCCOC(=O)CCC(=O)OC[C@H]1O[C@@](CO)(O[C@H]2O[C@H](CO)[C@@H](O)[C@H](O)[C@H]2O)[C@@H](O)[C@@H]1O [Compound I-7] ?
Reply: 22

Ask: Which % Remaining of Initial (n = 1), 20 min reading was recorded for the compound CCCCCCCCCCCCCCCC(=O)NCCOC(=O)CCC(=O)OCC(O)CO (stereo not shown) [Compound I-9] ?
Reply: 2.1

----------
Measurement Description: Intestinal S9 fraction stability, rat
Condition Context: male, Sprague-Dawley, rat, s9, CLint, Control Compound; Rat intestinal S9 fraction
Description: The reaction mixture, minus cofactors, was prepared as described below. The test article was added into the reaction mixture at a final concentration of 1 μM. […] Half-lives were calculated using GraphPad software, fitting to single-phase exponential decay equation. Reaction mixture, minus cofactors, was prepared as described below. […] Halflives were calculated using GraphPad software, fitting to a single-phase exponential decay equation. […]
Measure: microsomal CLint

Ask: Which microsomal CLint reading was recorded for the compound C[C@]12CC[C@H]3[C@@H](CCC4=CC(=O)CC[C@@]43C)[C@@H]1CC[C@@H]2O [Testosterone, testosterone, reference compound] ?
Reply: < 11.6 µL/min/mg
